src = PubChem BioAssay

Measured fluorescence slope by item
Test Target: Voltage-gated potassium channel subunit beta-2 (Rattus norvegicus)
Assay Name: inhibitors of rat Kvbeta2 reductase activity – biochemical, NADPH fluorescence, primary screen (AID 622);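 note: slope of raw intensity against log time taken from 70 to 1610 s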
Assay Setup: recombinant KvBeta, 4-cyanobenzaldehyde reduction, at 10 µM, stronger effect = higher value
When you answer, write just the number.

Some solved cases for reference:
CCCCCC1NC(=O)NC1CCCCCC(=O)O (stereo unspecified) ... -0.577
COc1ccc(S(=O)(=O)NCCCN2CCOCC2)c2ccccc12 ... -0.356

Let us examine a further case.
Endpoint output: fluorescence slope of COC(=O)c1ccc(COC(=O)c2c(C)nn(Cc3ccccc3Cl)c2Cl)o1 . Value?
-0.408

* * *

Assay Name: blockers of RIG-like receptor reporter activation – cell-based, Sendai virus stimulus, luciferase, 10K MLSCN set, TLR/RLR signaling modifier project, primary screen (AID 602276);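 note: firefly luciferase from ISG56 promoter only with Renilla not read in this screen; 0% = Sendai virus plus DMSO and 100% = medium plus DMSO without virus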
Assay Setup: HEK293 RL24 IRF3 luciferase reporter, at 10 µM, stronger effect = higher value
Recorded Endpoint: inhibition (%)
The reply should contain only the number, in %.

Some solved cases for reference:
CCC(=O)Nc1nn(C)c2nc3c(C)cccc3cc12 ... -2.08
CCS(=O)(=O)c1nc2ccccc2n1CC(=O)N1CCCCC1 ... 17.6
Cc1cc(=O)c2n(Cc3ccccc3Cl)nc[n+]2[nH]1 ... 5.55
Cc1ccc(C)c2[nH]c(=O)c(CCNC(=O)c3ccc(S(=O)(=O)N(C)C)cc3)cc12 ... 3.79
CCC(C(=O)NC(C)CCc1ccco1)n1nc(C)n2c(cc3occc32)c1=O (stereo unspecified) ... 2.28

Endpoint output: inhibition of CCN(CC)c1nc2cc(OC)ccc2cc1C#N . Value?
12.7

* * *

Measured fluorescence slope by item
Test Target: Muscarinic acetylcholine receptor M4 (Homo sapiens) (UniProt P08173)
Sequence (P08173 whole entry, looked up): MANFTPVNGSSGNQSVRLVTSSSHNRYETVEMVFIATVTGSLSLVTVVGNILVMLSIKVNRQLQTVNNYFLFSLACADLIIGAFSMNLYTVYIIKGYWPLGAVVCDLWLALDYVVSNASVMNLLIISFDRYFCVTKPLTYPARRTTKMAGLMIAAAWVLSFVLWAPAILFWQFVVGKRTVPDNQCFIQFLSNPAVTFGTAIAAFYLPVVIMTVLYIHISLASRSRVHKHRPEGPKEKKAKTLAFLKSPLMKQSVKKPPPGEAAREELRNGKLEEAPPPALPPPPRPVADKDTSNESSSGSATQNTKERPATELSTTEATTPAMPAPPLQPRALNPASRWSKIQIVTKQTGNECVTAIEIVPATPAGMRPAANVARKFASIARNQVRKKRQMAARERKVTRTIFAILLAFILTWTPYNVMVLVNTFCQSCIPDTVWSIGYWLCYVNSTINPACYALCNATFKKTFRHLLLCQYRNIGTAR
Assay Name: M4-linked GIRK flux change, two-sided – cell-based, HEK293 M4/GIRK, thallium flux, BTC-AM, M4 allosteric agonist project, primary screen (AID 625);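 note: thallium influx through GIRK channels coupled to M4 in HEK293 cells with BTC-AM dye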
Assay Setup: at 10 µM, actives lie on both sides
When you answer, write just the number.

COc1ccc(-n2nnnc2-c2cccc(OC)c2)cc1 ... 0.00701
O=C(CCCC(=O)N(CC(=O)NC1CCCCC1)Cc1ccc2c(c1)OCO2)Nc1ccccn1 ... 0.00636
Cc1c(C(=O)O)sc2ncn(C)c(=O)c12 ... 0.00525

Endpoint output: fluorescence slope of COc1ccc2c(-c3cccnc3)cc(=O)[nH]c2c1 . Value?
0.00553

Endpoint output: fluorescence slope of CCC(C)OC(=O)C1=C(C)NC2=C(C(=O)C(C(=O)OC)C(C)C2)C1c1ccc(N(C)C)cc1 (configuration not stated) . Value?
0.00551

Endpoint output: fluorescence slope of CC(=O)Nc1cccc(NC(=O)CSc2nnnn2C)c1 . Value?
0.00501

* * *

Assay Name: inhibitors of TNFa-induced NFkB p65 translocation, primary screen, imaging, HUVEC, MLSMR starter and 10KST1 sets (AID 438);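 note: compound added about 3h40 before a 20 min TNFalpha stimulation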
Assay Setup: HUVEC TNFa-induced p65 nuclear translocation; measured here: nuclei count (cytotoxicity indicator), at 2.08 µM
Tick true if cell count is 600 or greater. Tick false if cell count is less than 600.

Sample answers from the record:
Nc1ccc(Sc2nnnn2-c2ccccc2)c(Cl)c1 ... false
Cc1cc(N2C(=O)C3C4C=CC(C4)C3C2=O)ccc1Br (stereo unspecified) ... true
COc1ccc(C2=CC(=O)OC3(CCCCC3)O2)cc1 ... false
O=C(NCc1ccccc1)C1CCN(S(=O)(=O)c2cccc3cccnc23)CC1 ... true
CCOc1cc(C2/C(=C(/O)c3ccc(OC(C)C)cc3)C(=O)C(=O)N2CCCOC)ccc1O (stereo unspecified) ... true
CC(=O)Nc1ccccc1OCc1nnc(-c2cccs2)o1 ... false
Cc1ccc2oc(=O)c3cnn(CC(=O)N4CCCCC4C)c3c2c1 (stereo unspecified) ... true

Consider the record given below.
# bool: cell count of CCCN(CCC)CCCNS(=O)(=O)c1ccc2c(c1)oc(=O)n2C >= 600
false

* * *

Assay Name: TLR3 IRF3 reporter activation blockers – cell-based, poly I:C stimulus, luciferase, 10K MLSCN set, primary screen (AID 602277)
Assay Setup: HEK293-TLR3 RL24 IRF3 luciferase reporter, at 10 µM, stronger effect = higher value
Recorded Endpoint: inhibition (%)
The reply should contain only the number, in %.

Some solved cases for reference:
Nc1scc(-c2ccncc2)c1Cl ... -65.9
CCC(C)(C(=O)NC1CCCC1)N(Cc1cccs1)C(=O)Cc1cccs1 (stereo unspecified) ... 44.6
Cc1ccc(S(=O)(=O)N2CCCC(c3nnc4n3-c3ccccc3SC4)C2)cc1 (stereo unspecified) ... 19.1
CN1C(=O)c2oc3ccccc3c(=O)c2C1c1ccccn1 (stereo unspecified) ... 12
Cc1ccc2c(c1)-c1c(cnn1CC(=O)NC(C)CCc1ccco1)CO2 (stereo unspecified) ... 29.3

Endpoint output: inhibition of CCOc1ccc2[nH]c(=O)c(CN(CCOC)C(=O)N3CCOCC3)cc2c1 . Value?
12.3

Endpoint output: inhibition of COc1cc2c(cc1OC)-c1cc(OCc3cccnc3)nc(=O)n1CC2 . Value?
28.8

Endpoint output: inhibition of CCn1cc(C2=NOC(C(=O)Nc3c(C)nn(Cc4ccc(F)cc4)c3C)C2)c(C)n1 (stereo unspecified) . Value?
11.4

Endpoint output: inhibition of Cc1cccc(Cn2c(=O)n(Cc3ccco3)c(=O)c3ccccc32)c1 . Value?
-5.18

Endpoint output: inhibition of Cc1noc(C)c1S(=O)(=O)N1CCC(C(=O)N2CCN(Cc3ccc4c(c3)OCO4)CC2)CC1 . Value?
17.8

Endpoint output: inhibition of Cn1c(=O)c2c(nc(SCCCC#N)n2Cc2c(F)cccc2Cl)n(C)c1=O . Value?
7.45

* * *

Assay Name: endothelial E-selectin expression blockers – imaging, HUVEC, immunofluorescence, MLSMR starter and 10KST1 sets, primary screen (AID 487);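 note: signal is fraction of cell area covered by stained E-selectin grains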
Assay Setup: HUVEC TNFalpha-induced E-selectin immunofluorescence imaging, at 2 µM
Activity calls are given as the source filed them.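 How the source made its calls: active means visually confirmed hit in the image check and inhibition above 20%; inconclusive means visually confirmed hit but inhibition not above 20%; inactive means no visual hit in the image check.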
Write down the outcome that applies. Available outcomes: t = active, f = inactive

Sample answers from the record:
Cc1ccccc1NS(=O)(=O)c1ccc(NC(=O)c2ccco2)cc1 ... f
CCn1c(=O)cc(OCC(=O)Nc2cc(C)ccn2)c2ccccc21 ... f
CCCCOc1ccccc1NC(=O)c1ccco1 ... f
O=C(NCc1ccco1)C1CCN(S(=O)(=O)N2CCC3(CC2)OCCO3)CC1 ... f

Consider the record given below.
Hi team, can someone confirm the assay call for CCC(=O)Nc1cccc(Br)c1 ?
f

* * *

Assay Name: blockers of RIG-like receptor reporter activation – cell-based, Sendai virus stimulus, luciferase, 10K MLSCN set, TLR/RLR signaling modifier project, primary screen (AID 602276);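 note: firefly luciferase from ISG56 promoter only with Renilla not read in this screen; 0% = Sendai virus plus DMSO and 100% = medium plus DMSO without virus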
Assay Setup: HEK293 RL24 IRF3 luciferase reporter, at 10 µM, stronger effect = higher value
Measured inhibition by item
The reply should contain only the number, in %.

Some solved cases for reference:
O=C(Nc1ccc2oc(=O)ccc2c1)c1cccnc1 ... 6.9
CCOC(=O)c1c(NC(=O)c2cccs2)sc2c1CCN(C(=O)OCC)C2 ... 10.1
O=C(Nc1ccc(-c2nc3ncccc3o2)cc1)c1ccc(Br)o1 ... -28.6
CC(C)(C)c1cc(NC(=O)c2cc(F)c(F)c(F)c2F)no1 ... -23.2
O=C(NCc1ccco1)c1cccc(-c2nnc(-c3ccccc3)o2)c1 ... 18.5

Endpoint output: inhibition of CC(=O)c1c(C)[nH]c(C(=O)NC2=NCCS2)c1C . Value?
-2.52

Endpoint output: inhibition of N#CC1=C(N)SC(N)=C(C#N)C1CCc1ccccc1 . Value?
18

Endpoint output: inhibition of CCSc1ccccc1C(=O)NCc1ccc(S(N)(=O)=O)cc1 . Value?
18.1

* * *

Assay Name: TLR3 IRF3 reporter activation blockers – cell-based, poly I:C stimulus, luciferase, 10K MLSCN set, primary screen (AID 602277)
Assay Setup: HEK293-TLR3 RL24 IRF3 luciferase reporter, at 10 µM, stronger effect = higher value
Tick satisfied if inhibition is 20% or greater. Tick not satisfied if inhibition is less than 20%.

Sample answers from the record:
O=C(Cc1cccs1)Nc1ccccc1NC(=O)Cc1cccs1 ... satisfied
COc1oc(-c2ccccc2)nc1C(F)(F)F ... not satisfied
CC(C)(C)NC(=O)CC(CC(=O)O)c1ccccc1 (stereo unspecified) ... satisfied
Cc1cccc(NC(=O)c2oc3c(c2C)C(=O)CC(C)(C)C3)n1 ... not satisfied
CC1(C)CC(=O)C2=C(C1)Nc1ccccc1N=C2 ... not satisfied

# bool: inhibition of C=CCn1c(=O)[nH]c2cc(C(=O)N3CCN(c4ccc(C(C)=O)cc4)CC3)ccc2c1=O >= 20%
not satisfied

# bool: inhibition of COC(=O)C1=C(C)N(c2ccc(C(=O)OC)cc2)C(=O)C1 >= 20%
not satisfied

# bool: inhibition of CCOCCCNS(=O)(=O)c1ccc2c(c1)oc(=O)n2CC(=O)OCC >= 20%
satisfied

# bool: inhibition of O=C(O)c1ccc(NC(=O)c2cccs2)cc1 >= 20%
not satisfied
